Source of measurements: patent US20220132847A1

Listed below: pest or weed control at 500 g/ha values for each entry.
Test system: Euphorbia heterophylla (EPHHL)
Test: Post-emergence efficacy, glasshouse
Assay type: in vivo
Details: Euphorbia heterophylla, post-emergence, 312 h, Application Rate 500 g/Ha; evaluated after 13 days; 100=total damage to plant, 0=no damage to plant; read-out: Control of weed species after post-emergence application, EPHHL

>  <MOLECULE>
CC(C)OP(=O)([O-])c1c[n+](C(C)(C)C)nc2ccccc12 [Compound A74]

>  <pest or weed control at 500 g/ha [%]>
50

$$$$
>  <MOLECULE>
CCOP(=O)([O-])c1c[n+](C(C)C)nc2ccccc12 [Compound A77]

>  <pest or weed control at 500 g/ha [%]>
80

$$$$
>  <MOLECULE>
C[n+]1cc(CCC(=O)O)c2ccccc2n1 [Compound A56, 2,2,2-trifluoroacetate]

>  <pest or weed control at 500 g/ha [%]>
40

$$$$
>  <MOLECULE>
CCOP(=O)([O-])c1c[n+](C(C)(C)C)nc2ccccc12 [Compound A75]

>  <pest or weed control at 500 g/ha [%]>
30

$$$$
